Give measured MFI at 33.3 nM for each item. Keep answers brief.
Molecular target: T1, human PD-L1 (huPD-L1), full-length, stably expressed on CHO cells (human, UniProt Q9NZQ7 19-290)
T1 construct: whole, on cells
T1 sequence (Q9NZQ7 19-290): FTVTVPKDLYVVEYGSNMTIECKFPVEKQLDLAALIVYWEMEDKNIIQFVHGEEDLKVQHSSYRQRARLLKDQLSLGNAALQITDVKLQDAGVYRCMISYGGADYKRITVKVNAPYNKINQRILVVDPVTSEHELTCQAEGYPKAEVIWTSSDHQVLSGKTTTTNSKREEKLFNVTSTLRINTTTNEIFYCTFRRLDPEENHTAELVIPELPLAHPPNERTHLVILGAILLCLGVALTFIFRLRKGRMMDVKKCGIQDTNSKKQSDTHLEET
Assay: flow cytometry, CHO cells expressing huPD-L1
// return numeric value only (unit: MFI, not printed)

Give the value of MFI at 33.3 nM reported for the following: variant CD80 IgV-Fc H18Y/V22D/E35D/M47V/N48K/V68M (Fc fusion, not shown: small tags and cut ends; a dimerising Fc or GST) VIHVTKEVKEVATLSCGYNVSDEELAQTRIYWQKDKKMVLTMMSGDVKIWPEYKNRTIFDITNNLSIMILALRPSDEGTYECVVLKYEKDAFKREHLAEVTLSVKAD
12900

Give the value of MFI at 33.3 nM reported for the following: variant CD80 IgV-Fc E35D/D46E/M47L/V68M/A71G/Y87C/K93R (Fc fusion, not shown: small tags and cut ends; a dimerising Fc or GST) VIHVTKEVKEVATLSCGHNVSVEELAQTRIYWQKDKKMVLTMMSGELNIWPEYKNRTIFDITNNLSIMILGLRPSDEGTYECVVLKCEKDAFRREHLAEVTLSVKAD
24300

Give the value of MFI at 33.3 nM reported for the following: variant CD80 IgV-Fc H18Y/E35D/M38I/M47L/V68M/L85M (Fc fusion, not shown: small tags and cut ends; a dimerising Fc or GST) VIHVTKEVKEVATLSCGYNVSVEELAQTRIYWQKDKKIVLTMMSGDLNIWPEYKNRTIFDITNNLSIMILALRPSDEGTYECVVMKYEKDAFKREHLAEVTLSVKAD
3590

Give the value of MFI at 33.3 nM reported for the following: variant CD80 IgV-Fc E35D/M47L/Y53F/V68M/A71G/K93R/E95V (Fc fusion, not shown: small tags and cut ends; a dimerising Fc or GST) VIHVTKEVKEVATLSCGHNVSVEELAQTRIYWQKDKKMVLTMMSGDLNIWPEFKNRTIFDITNNLSIMILGLRPSDEGTYECVVLKYEKDAFRRVHLAEVTLSVKAD
25000
